Data provenance is BindingDB's records for doi:10.1021/jm070299x.

- target: Inosine-5'-monophosphate dehydrogenase 2 (Homo sapiens, UniProt P12268)
- assay-remarks: IMPDH2 Enzyme Inhibition and Human T-Lymphoblast (CEM) Proliferation Inhibition Assays
- condition-notes: pH 8; 25 °C
pIC50: −log10 of the molar value.
Record True whenever pIC50 is at 6 or higher; record False when lower.

Look over these answered cases.
CC(C)(NC(=O)c1ccc2c(=O)c3ccccc3[nH]c2c1)c1ccccn1	False
CC(C)(NC(=O)c1cc2[nH]c3ccccc3c(=O)c2cc1F)c1cccc(S(C)(=O)=O)c1	True
CC(C)(C)NC(=O)c1ccc2c(=O)c3ccccc3[nH]c2c1	False
CC(C)(NC(=O)c1ccc2c(=O)c3ccccc3[nH]c2c1)c1ccccc1	False
CC(C)(NC(=O)c1cc2[nH]c3ccccc3c(=O)c2cc1F)c1cccnc1	True
CN(C)S(=O)(=O)c1cccc(C(C)(C)NC(=O)c2cc3[nH]c4ccccc4c(=O)c3cc2F)c1	True
CC(C)(NC(=O)c1cc2[nH]c3ccccc3c(=O)c2cc1F)c1ccc(S(C)(=O)=O)cc1	True
CC(C)(NC(=O)c1ccc2c(=O)c3ccccc3[nH]c2c1)c1cccnc1	False

Is reported pIC50 greater than or equal to 6 here: "CC(C)(NC(=O)c1ccc2c(=O)c3ccccc3[nH]c2c1)c1ccncc1"
False

----------
- target: Inosine-5'-monophosphate dehydrogenase 2 (Homo sapiens)
- assay-remarks: IMPDH2 Enzyme Inhibition and Human T-Lymphoblast (CEM) Proliferation Inhibition Assays
- condition-notes: pH 8; 25 °C; read-out: IC50
readout: pIC50
# pIC50 is unitless: minus log10 of the molar concentration; print number only

Look up and report measured pIC50 for this entry: "CCOC(=O)c1ccc2c(=O)c3ccccc3[nH]c2c1"
7.23

----------
- target: Inosine-5'-monophosphate dehydrogenase 2 (Homo sapiens, UniProt P12268)
- assay-remarks: IMPDH2 Enzyme Inhibition and Human T-Lymphoblast (CEM) Proliferation Inhibition Assays
- condition-notes: pH 8; 25 °C
readout: pIC50
# pIC50 is unitless: minus log10 of the molar concentration; print number only

CN(C)CCOc1ccc(C(C)(C)NC(=O)c2cc3[nH]c4ccccc4c(=O)c3cc2F)cc1	6.25

Then there is this compound:
Look up and report measured pIC50 for this entry: "CN(C)c1cc(C(C)(C)NC(=O)c2cc3[nH]c4ccccc4c(=O)c3cc2F)ccn1"
6.19

----------
- target: Inosine-5'-monophosphate dehydrogenase 2 (Homo sapiens)
- assay-remarks: IMPDH2 Enzyme Inhibition and Human T-Lymphoblast (CEM) Proliferation Inhibition Assays
- condition-notes: pH 8; 25 °C
readout: pIC50
# pIC50 is unitless: minus log10 of the molar concentration; print number only

Examples with answers:
CCN1CCN(c2ccc(C(C)(C)NC(=O)c3cc4[nH]c5ccccc5c(=O)c4cc3F)cn2)CC1	6.11
CN(C)S(=O)(=O)c1ccc(C(C)(C)NC(=O)c2cc3[nH]c4ccccc4c(=O)c3cc2F)cc1	6.18
Cc1ccc(C(C)(C)NC(=O)c2cc3[nH]c4ccccc4c(=O)c3cc2F)cn1	6.12
Cc1cc(C(C)(C)NC(=O)c2cc3[nH]c4ccccc4c(=O)c3cc2F)cnc1N1CCOCC1	6.06
COc1cc(C(C)(C)NC(=O)c2cc3[nH]c4ccccc4c(=O)c3cc2F)cnc1N1CCOCC1	6.09

Provide pIC50, tested on Inosine-5'-monophosphate dehydrogenase 2 (Homo sapiens), for "CC(C)(NC(=O)c1cc2[nH]c3ccccc3c(=O)c2cc1F)c1ccc(N2CCOCC2)nc1" .
6.18

Provide pIC50, tested on Inosine-5'-monophosphate dehydrogenase 2 (Homo sapiens), for "CC(C)(NC(=O)c1cc2[nH]c3ccccc3c(=O)c2cc1F)c1ccccn1" .
6.00
